# Test system: HCT-15 colon
# experiment-summary: NCI tumour cell line growth inhibition, 48 h
Known GI50 of a selection of molecules
measurement-kind: GI50

molecule | target-or-test-system | measurement-kind | result
O=C1C=CC(=O)N1c1ccc2ccccc2c1 | HCT-15 colon | GI50 | 16.5 µM
CC[C@@]1(O)C(=O)OCc2c1cc1n(c2=O)Cc2cc3c(N)c(OC)ccc3nc2-1 | HCT-15 colon | GI50 | 0.283 µM
C=CC(=O)N1CCN(c2nc(OC[C@@H]3CCCN3C)nc3c(F)c(-c4nc(N)cc(C)c4C(F)(F)F)c(Cl)cc23)[C@@H](C)C1 | HCT-15 colon | GI50 | 1.7 µM
COc1cccc2c1C(=O)c1c(O)c3c(c(O)c1C2=O)C[C@@](O)(C(=O)CO)C[C@@H]3OC1CC2C(OCN2CN2COC3C(C)OC(O[C@H]4C[C@](O)(C(=O)CO)Cc5c(O)c6c(c(O)c54)C(=O)c4c(OC)cccc4C6=O)CC32)C(C)O1 (some centres undefined) | HCT-15 colon | GI50 | 0.0278 µM

* * *

Known TGI of a selection of molecules
# Tested on: HCT-15 colon
# experiment-summary: NCI tumour cell line growth inhibition, 48 h

molecule | TGI
COc1ccc(C(=O)c2[nH]c(Nc3cc(C)ccn3)c(C(=S)Nc3ccccc3)c2N)cc1 | 55.9 µM
COc1cc(/C=C/C(=O)c2cccc(-n3cc(-c4ccccc4)[nH]c3=O)c2)ccc1O | 14.3 µM
O=C1C=CC2(C=C1)O[C@H](CCc1ccccc1)[C@@H](CCc1ccccc1)O2 | > 100 µM
O=c1c2cc([N+](=O)[O-])ccc2[nH]n1Cc1ccccc1Cl | > 100 µM
O=C(/C=C/c1cccc(Cl)c1)c1ccccc1 | 22.7 µM
CCSc1c2cc(OC)ccc2nc2ccc(OC)cc12 | > 100 µM
CCOC(=O)C(c1ccsc1)P(=O)(OCC)OCC (stereo not drawn) | 37.4 µM
CCOC(=O)c1ccc(N[C@@H]2c3cc4c(cc3C(c3cc(OC)c(O)c(OC)c3)[C@H]3C(=O)OCC32)OCO4)cc1 (stereo partly drawn) | 6.17 µM
COP(=O)(OC)[C@@](O)(c1ccccc1)[C@@H](O)[C@@H](O)c1ccccc1 | > 100 µM
COc1ccc(-c2c(C#N)c(N)nc(Sc3ccccc3N)c2C#N)cc1 | > 100 µM
COc1ccc(C)cc1NC(=S)N/N=C/c1ccco1 | > 100 µM
CC1=NN(c2nc(N)nc(CCl)n2)C(C)(C)C1 | 55.9 µM
O=C1Sc2sc(=S)sc2SC1c1ccccc1 (stereo not drawn) | 36.8 µM
CC(=O)OC1CCC2(C)C(=CCC3C2CCC2(C)C3CC3OC4(CCC(C)CN4)C(C)C32)C1 (stereo not drawn) | > 100 µM
CC(Oc1ccc(Cl)cc1Cl)C(=O)NN1C(=O)CC(=O)NC1=S (stereo not drawn) | > 100 µM
Cc1nc2sc(C(=O)Nc3cccc4c3OCCO4)c(N)c2cc1C(C)O (stereo not drawn) | > 100 µM
Cc1ccc2c(n1)C(=O)c1cc(C)c(C)cc1C2=O | > 100 µM
O=[N+]([O-])C(=C1c2ccccc2-c2ccccc21)[N+](=O)[O-] | > 10 µM
CN(C)Cc1cc(C(=O)/C=C/c2ccc(Cl)cc2Cl)cc(CN(C)C)c1O | 14.6 µM
CC1=CC2=C(C=O)C(=O)[C@](C)(O)[C@@H](O)C2=CO1 | > 100 µM
CCc1cn(C2CC(CO)C(CO)S2)c(=O)[nH]c1=O (stereo not drawn) | > 100 µM
CC(C)(C)c1ccc(OCCCCCCCN2CCNCC2)cc1 | 3.38 µM
N#Cc1ccc(N=NN2CCCC2)cc1 | > 100 µM

* * *

Known log10 of TGI of a selection of compounds
# System: IGROV1 ovarian
# experiment-summary: NCI tumour cell line growth inhibition, 48 h
measurement-kind: log10 of TGI (log10 of the value in µM)

compound | measurement-kind | readout-number
COC(=O)/C=C1\C(=O)Nc2ccc(Br)cc21 | log10 of TGI | 0.56
COC(=O)c1ccc(C)cc1C1CN=NC12Cc1c(C)cccc1C2=O (stereo unspecified) | log10 of TGI | 1.99
Nc1ccc(C(=O)NN2C(=O)C(Cl)C2c2ccc(O)cc2)cc1 (stereo unspecified) | log10 of TGI | 1.52
Cc1ccc(C(=O)c2[nH]c(NCc3ccccc3)c(C(=S)Nc3ccccc3)c2N)cc1 | log10 of TGI | 1.30
O=C(Cn1c(C(=O)/C=C/c2ccc(Cl)c(Cl)c2)nc2ccccc21)c1ccccc1 | log10 of TGI | 1.90

* * *

# Test system: NCI-H226 lung
# experiment-summary: NCI tumour cell line growth inhibition, 48 h
Known TGI of a selection of compounds

compound | TGI
CCCCCCCCCCCC(=O)OCC(O)CO (stereo not given) | > 100 µM
CC(C)(C(=O)N(C(=O)N1CCN(c2ccccc2)CC1)S(=O)(=O)c1ccccc1)c1ccc(Cl)cc1 | > 100 µM
CCn1cnc(C[C@H](NC(=O)[C@@H](NC(=O)Nc2cc(C(F)(F)F)cc(C(F)(F)F)c2)C(C)(C)C)C(=O)OC)c1 | > 10 µM
CN(C)Cc1nsc(N(C)C)n1 | > 100 µM
CC(=O)OC1CCC2(C)C(=CCC3C2CCC2(C)C3CC3OC4(CCC(C)CN4)C(C)C32)C1 (stereo not given) | > 100 µM

* * *

# Tested on: KM12 colon
# experiment-summary: NCI tumour cell line growth inhibition, 48 h
measurement-kind: TGI (µM)

compound | target-or-test-system | value-unit | qualifying-sign | readout-number
COc1cccc(-c2nc(N)c(C#N)c3c2CCS(=O)(=O)c2ccc(C)cc2-3)c1 | KM12 colon | µM | > | 58.4
Cc1ccccc1-n1c(=O)nc2n(-c3ccc(C(C)(C)C)cc3)c3ccccc3cc-2c1=O | KM12 colon | µM | = | 29.8
C=CCC(NCc1ccccc1)c1cn(C(=O)OCC)c2ccccc12 (stereo not given) | KM12 colon | µM | > | 100
O=C1CC2=CCCC2O1 (stereo not given) | KM12 colon | µM | > | 100
NC(=O)c1c(NC(=O)c2ccc(C(F)(F)F)cc2Cl)sc2c1CCC(=O)C2 | KM12 colon | µM | = | 1.73
O=S(=O)([O-])c1ccc(C=Nc2ccccc2)c([O-])c1.O=S(=O)([O-])c1ccc(C=Nc2ccccc2)c([O-])c1.[Co+2] | KM12 colon | µM | > | 100
CC1(c2cccc(C(F)(F)F)c2)CC(c2cccc(C(F)(F)F)c2)=C(C#N)C(=C(C#N)C#N)N1 (stereo not given) | KM12 colon | µM | = | 32.9
Nc1nc(N)c2ncn(Cc3ccccc3CO)c2n1 | KM12 colon | µM | > | 100
COc1cc(/C=C/C(=O)c2cccc(-n3cc(-c4ccccc4)[nH]c3=O)c2)ccc1O | KM12 colon | µM | = | 4.68
O=C1Nc2ccccc2C1(O)Cc1ccccn1 (stereo not given) | KM12 colon | µM | > | 100

* * *

# Test system: CAKI-1 renal
# experiment-summary: NCI tumour cell line growth inhibition, 48 h; in the data active means GI50 below about 0.43 µM; inactive means the rest
Outcomes: yes (1) = active, no (0) = inactive

compound | assigned-class
C=CCC(NCc1ccccc1)c1cn(C(=O)OCC)c2ccccc12 (stereo not given) | no (0)
O=C(Nc1cccc2[nH]c(C(F)(F)F)nc12)c1ccc(Br)cc1F | no (0)
NC(=O)c1c(NC(=O)c2ccc(C(F)(F)F)cc2Cl)sc2c1CCC(=O)C2 | yes (1)
COc1cc(/C=C2\CC3C4CC=C5C[C@@H](N6CCCC6)CC[C@]5(C)C4CC[C@]3(C)[C@H]2OC(C)=O)ccc1OCCCn1ccnc1 (stereo not given in full) | no (0)
Nc1ncnc2c1ncn2C1OC(F)(COS(N)(=O)=O)C(O)C1O (stereo not given) | no (0)

* * *

# System: SW-620 colon
# experiment-summary: NCI tumour cell line growth inhibition, 48 h
Known TGI of a selection of compounds

compound | TGI
O=c1c2cc([N+](=O)[O-])ccc2[nH]n1Cc1ccccc1Cl | > 100 µM
COc1ccc2c(c1)C1Oc3ccccc3CC1CO2 (stereo unspecified) | > 100 µM
O=C1/C(=C/c2ccc([N+](=O)[O-])s2)Oc2ccc(Br)cc21 | 0.664 µM
COc1ccc(-n2c(C)nc3ccc(NC4OCC(OC(C)=O)C(OC(C)=O)C4OC(C)=O)cc3c2=O)cc1 (stereo unspecified) | > 100 µM
CCCCCCCCCCCCNCCCc1ccccc1 | 3.28 µM
NC(N)=N/N=C/c1c(Cl)nc2n1CCS2 | > 100 µM
COc1cccc(/C=C2\COc3ccc(O)c(O)c3C2=O)c1OC | 5.44 µM
COc1ccc(-c2c(C#N)c(N)nc(Sc3ccccc3N)c2C#N)cc1 | > 100 µM
COc1cccc(C2=C(c3cn(C)c4c(C)cccc34)C(=O)NC2=O)c1 | > 25 µM
CCSc1c2cc(OC)ccc2nc2ccc(OC)cc12 | > 100 µM
Cc1ccccc1-n1c(=O)nc2n(-c3ccc(C(C)(C)C)cc3)c3ccccc3cc-2c1=O | 33.5 µM
